Test system: Aureobasidium pullulans (strain 1)
Run description: Antifungal activity on painted surfaces, strain 1
Type: cell-based
Measurement conditions: 0.5% in vinyl acetate latex paint, Strain 1, three weeks
Property: Zone of Inhibition

Per the records, this compound ( Cc1ccc(OCC#CI)cn1 [drawing 12] ) has Zone of Inhibition equal to 2 (6-10 mm)

Clc1ncccc1OCC#CI [drawing 13] has a reported Zone of Inhibition of 3 (11-15 mm)

Zone of Inhibition in this record for IC#CCOc1cccnc1 [drawing 11] : 3 (11-15 mm)

Per the record, IC#CCOCc1cccnc1 [drawing 16] has Zone of Inhibition of 5 (>20 mm)

Looking up IC#CCSc1ccncc1 [drawing 18] , I found its Zone of Inhibition recorded as 1 (1-5 mm)

compound IC#CCSc1cccnc1 [drawing 15] , Zone of Inhibition observed: 3 (11-15 mm)

// recorded Zone of Inhibition for Nc1ncccc1OCC#CI [drawing 14] : 2 (6-10 mm)

For IC#CCOc1ccncc1 [drawing 17] the compound record lists Zone of Inhibition as 2 (6-10 mm)

###

Tested on: Aureobasidium pullulans (strain 2)
Run description: Antifungal activity on painted surfaces, strain 2
Format: cell-based
Measurement conditions: 0.5% in vinyl acetate latex paint, Strain 2, three weeks
Consider the following compounds; for each one, report its Zone of Inhibition.

The compound listed as IC#CCOc1ccncc1 [drawing 17] shows Zone of Inhibition equal to 1 (1-5 mm)

The recorded Zone of Inhibition for entry IC#CCSc1cccnc1 [drawing 15] equals 2 (6-10 mm)

Notebook: Cc1ccc(OCC#CI)cn1 [drawing 12] , Zone of Inhibition read as 2 (6-10 mm)

Measured Zone of Inhibition, IC#CCOCc1cccnc1 [drawing 16] : 4 (16-20 mm)

Looking up Nc1ncccc1OCC#CI [drawing 14] , I found its Zone of Inhibition recorded as 0

compound IC#CCSc1ccncc1 [drawing 18] , Zone of Inhibition observed: 0

Entry Clc1ncccc1OCC#CI [drawing 13] , Zone of Inhibition reported as 2 (6-10 mm)

###

Give measured MIC for each item. Keep answers brief.

MIC for Aureobasidium pullulans with input IC#CCOc1ccncc1 [drawing 9] equals 0.12 to 0.6 mg/L

Entry Cc1ccc(OCC#CI)c(Cl)n1 [drawing 5] : MIC on Aureobasidium pullulans = 0.03 to 0.12 mg/L

The observed MIC for IC#CCOCc1cccnc1 [drawing 8] when tested with Aureobasidium pullulans stands at 0.6 to 3 mg/L

I looked up Cc1ccc(OCC#CI)cn1 [drawing 3] and its MIC for Aureobasidium pullulans was < 0.03 mg/L

###

System: Aureobasidium pullulans (strain 2)
Run description: Antifungal activity of painted birch blades after exposure to heat and light
Assay type: cell-based
Set-up: key: 0: No growth; 1: Slight growth; 2: Moderate growth; 3: Heavy growth
Measurement conditions: 0.5%, after light (300-400 nm) and heat (40° C.) four weeks
Property: Surface Growth

Surface Growth in this record for IC#CCOc1ccncc1 [drawing 26] : 2

Lab note: IC#CCOc1cccnc1 [drawing 19] gave Surface Growth of 0

Record summary for IC#CCOc1ccccc1 [reference compound] : reported Surface Growth = 2
